Entry source: patent US10266497B2

Please go through the items and note down their inhibition at 1 µM.
TARGET_SYSTEM: MAGL (Mus musculus, UniProt O35678)
Sequence (O35678 whole entry): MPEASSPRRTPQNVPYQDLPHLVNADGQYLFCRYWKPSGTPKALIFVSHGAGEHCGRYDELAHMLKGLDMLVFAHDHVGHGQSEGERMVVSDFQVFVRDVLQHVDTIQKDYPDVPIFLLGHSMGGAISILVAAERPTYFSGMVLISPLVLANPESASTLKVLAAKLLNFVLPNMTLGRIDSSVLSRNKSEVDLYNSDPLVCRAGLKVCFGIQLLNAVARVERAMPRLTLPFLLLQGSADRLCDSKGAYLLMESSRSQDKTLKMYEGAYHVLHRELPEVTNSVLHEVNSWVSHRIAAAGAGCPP
ASSAY_PROTOCOL: In vitro competitive activity-based protein profiling, MAGL, mouse
ASSAY_CONDITIONS: read-out: MAGL % inh. 1 μM (mouse)

Consider `O=C(O)c1ccn(C(=O)N2CCN(Cc3cccc(Oc4ccncc4)c3)CC2)n1` . Its measured inhibition at 1 µM is > 75%

The recorded inhibition at 1 µM for `CC(C)(O)COc1cccc(O[C@H]2C[C@@H]3CN(C(=O)n4ccc(C(N)=O)n4)C[C@@H]3C2)c1Cl` is > 75%

response.value for `CN(Cc1ccc(C(F)(F)F)cc1-c1nccs1)C1(C)CCN(C(=O)n2ccc(C(=O)O)n2)CC1` (field: inhibition at 1 µM) = > 75%

Summary for this molecule, O=C(O)c1ccn(C(=O)N2CCC3(CCN(Cc4ccc(Cl)c(N5CC6COCC6C5)c4)C3)CC2)n1 (centres unmarked) : inhibition at 1 µM is 0 to 25%

inhibition at 1 µM reading for `NC(=O)c1ccn(C(=O)N2CCN(Cc3ccc(N4CCOCC4)cc3Cl)CC2)n1` : > 75%

inhibition at 1 µM in this record for `O=C(O)c1ccn(C(=O)N2CCN(Cc3cccc(-c4ncccn4)c3)CC2)n1` : > 75%

Value of measured inhibition at 1 µM for the entry `CN(Cc1cc(C(F)(F)F)ccc1N1CCCC1)C1(C)CCN(C(=O)n2ccc(C(=O)O)n2)CC1` : > 75%

# molecule `O=C(O)c1ccn(C(=O)N2C[C@H]3C[C@@H](OCc4cccc(C(F)(F)F)c4)C[C@H]3C2)n1` ; its inhibition at 1 µM = > 75%

Entry `CC(=O)NC1CCN(c2cc(C(F)(F)F)ccc2CN2CCN(C(=O)n3ccc(C(=O)O)n3)CC2)CC1` — recorded inhibition at 1 µM = > 75%

So for `O=C(O)c1ccn(C(=O)N2CCN(Cc3cccc(Oc4ccc(C(F)(F)F)cn4)c3)CC2)n1` , the logged inhibition at 1 µM turned out to be > 75%

inhibition at 1 µM reading for `O=C(O)c1ccn(C(=O)N2CCC3(CCN(Cc4cc(N5CCCC5)ccc4C(F)(F)F)C3)CC2)n1` : > 75%

So for `Cc1c(CN2CCN(C(=O)n3ccc(C(=O)O)n3)CC2)[nH]c2ccc(Cl)cc12` , the logged inhibition at 1 µM turned out to be > 75%

Value of inhibition at 1 µM reported for the molecule `O=C(O)c1ccn(C(=O)N2CCC3(CCN(Cc4ccc(Cl)c(N5CCOCC5)c4)C3)CC2)n1` is 25 to 50%

Value of measured inhibition at 1 µM for the entry Cc1cc(-c2ccccc2)ccc1CN1CCN(C(=O)n2ccc(C(=O)O)n2)C(C)C1 (centres unmarked) : > 75%

The molecule listed as `O=C(O)c1ccn(C(=O)N2CCC3(CCCN3Cc3ccc(C(F)(F)F)cc3N3CC4CCC(C3)O4)CC2)n1` shows inhibition at 1 µM equal to > 75%

# inhibition at 1 µM of `O=C(O)c1ccn(C(=O)N2CCN(Cc3ccc(N4CCCC4)cc3C(F)(F)F)CC2)n1` = > 75%

Please fill in: inhibition at 1 µM reported for `NC(=O)c1ccn(C(=O)N2CCC3(CCN(Cc4ccc(N5CCOCC5)cc4Cl)C3)CC2)n1` = > 75%

Note to self: inhibition at 1 µM recorded for `O=C(O)c1ccn(C(=O)N2CCN(Cc3cccc(Oc4cc(C(F)(F)F)ccn4)c3)CC2)n1` was > 75%

For `NC(=O)c1ccn(C(=O)N2CCN(Cc3ccc(C(F)(F)F)cc3N3CCCC3)CC2)n1` the molecule record lists inhibition at 1 µM as > 75%

# inhibition at 1 µM (molecule: `O=C(O)c1ccn(C(=O)N2CCN(Cc3ccc(C(F)(F)F)cc3Cl)CC2)n1` ) is > 75%

Record `C[C@H]1CN(Cc2cccc(Oc3ccc(Cl)cc3)c2)CCN1C(=O)n1ccc(C(=O)O)n1` , field inhibition at 1 µM: > 75%

# molecule `O=C(O)c1ccn(C(=O)N2CCC3(CCN(Cc4cccc(Oc5cncnc5)c4)C3)CC2)n1` ; its inhibition at 1 µM = 50 to 75%

# molecule `O=C(O)c1ccn(C(=O)N2C[C@H]3C[C@@H](OCc4cc(F)cc(Cl)c4)C[C@H]3C2)n1` ; its inhibition at 1 µM = 25 to 50%

Record `CN(Cc1ccc(C(F)(F)F)cc1)[C@@H]1C[C@@H]2CN(C(=O)n3ccc(C(N)=O)n3)C[C@@H]2C1` , field inhibition at 1 µM: > 75%

Value of inhibition at 1 µM reported for the molecule `C[C@@H]1CN(Cc2ccc(-c3ccccc3)cc2Cl)CCN1C(=O)n1ccc(C(=O)O)n1` is > 75%

Data point: `NC(=O)c1ccn(C(=O)N2CCN(Cc3cccc(Oc4ccccc4)c3)CC2)n1` ; inhibition at 1 µM = > 75%

* * *

Answer each item with its documented inhibition at 1 µM.
TARGET_SYSTEM: MAGL (Mus musculus)
ASSAY_PROTOCOL: In vitro competitive activity-based protein profiling, MAGL, mouse
ASSAY_CONDITIONS: read-out: MAGL % inh. 1 μM (mouse)

So the reported inhibition at 1 µM for NC(=O)c1ccc(CN2CCN(C(=O)n3ccc(C(=O)O)n3)CC2)cc1C(F)(F)F [Example 14] , on MAGL (Mus musculus), turned out to be 25 to 50%

Form field inhibition at 1 µM for item O=C(O)c1ccn(C(=O)N2CCN(Cc3cccc(Oc4cncnc4)c3)CC2)n1 [Example 65] on MAGL (Mus musculus): 25 to 50%

Case O=C(O)c1ccn(C(=O)N2CCC3(CCN(Cc4cccc(-c5nccs5)c4)C3)CC2)n1 [Example 305] , MAGL (Mus musculus), inhibition at 1 µM recorded as 0 to 25%

I looked up O=C(O)c1nn(C(=O)N2CC3CN(Cc4ccc(-c5cnc6ccccn56)cc4C(F)(F)F)CC3C2)cc1Cl (centres unmarked) [Example 20] and its inhibition at 1 µM for MAGL (Mus musculus) was > 75%

Note to self: inhibition at 1 µM of O=C(O)c1ccn(C(=O)N2CCC3(CCCN3Cc3ccc(C(F)(F)F)cc3N3CCOCC3)CC2)n1 [Example 405] with MAGL (Mus musculus) was > 75%

Simply: CN(Cc1ccc(C(F)(F)F)cc1N1CCC1)C1(C)CCN(C(=O)n2ccc(C(=O)O)n2)CC1 [Example 362] , MAGL (Mus musculus), inhibition at 1 µM = > 75%

So the reported inhibition at 1 µM for Cc1cn(C(=O)N2CCN(Cc3cc(F)cc(Oc4ccc(Cl)cc4)c3)CC2)nc1C(=O)O [Example 346] , on MAGL (Mus musculus), turned out to be > 75%

Lab entry: MAGL (Mus musculus) assay, compound O=C(O)c1ccn(C(=O)N2CCC(Oc3ccc(C(F)(F)F)cc3N3CCCC3)CC2)n1 [Example 307] , inhibition at 1 µM = > 75%

Item C[C@@H]1CN(Cc2ccc(-c3ccccc3)cc2C(F)(F)F)CCN1C(=O)n1ccc(C(=O)O)n1 [Example 351] was tested on MAGL (Mus musculus); the reported inhibition at 1 µM is > 75%

Case O=C(O)c1ccn(C(=O)N2CCC(OCc3ccc(Cl)c(C(F)(F)F)c3)CC2)n1 [Example 276] , MAGL (Mus musculus), inhibition at 1 µM recorded as > 75%

Sample O=C(O)c1ccn(C(=O)N2CC3CN(Cc4cc(F)cc(Cl)c4)CC3C2)n1 (centres unmarked) [Example 115] , system: MAGL (Mus musculus). Its inhibition at 1 µM is 0 to 25%

Reading of inhibition at 1 µM for Cc1cc(-c2ccccc2)ccc1CN1CCN(C(=O)n2ccc(C(=O)O)n2)CC1 [Example 16] with MAGL (Mus musculus): > 75%

Measured on MAGL (Mus musculus), O=C(O)c1ccn(C(=O)N2CCC3(CCCN3Cc3ccc(C(F)(F)F)cc3Cl)CC2)n1 [Example 76] has a documented inhibition at 1 µM of > 75%

inhibition at 1 µM value, target or system MAGL (Mus musculus), for O=C(O)c1ccn(C(=O)N2C[C@H]3C[C@H](OCc4cc(F)cc(Cl)c4)C[C@H]3C2)n1 [Example 53] : > 75%

Result for O=C(O)c1ccn(C(=O)N2CCN(Cc3cccc(Oc4ccccn4)c3)CC2)n1 [Example 52] , tested on MAGL (Mus musculus), inhibition at 1 µM: > 75%

Tested on MAGL (Mus musculus), the item O=C(O)c1nn(C(=O)N2CCN(Cc3ccc(-c4cnc5ccccn45)cc3C(F)(F)F)CC2)cc1Cl [Example 145] showed inhibition at 1 µM equal to > 75%

Tested system MAGL (Mus musculus); inhibition at 1 µM recorded for Cc1cc(CN2CCC3(CCN(C(=O)n4ccc(C(=O)O)n4)CC3)C2)ccc1C(F)(F)F [Example 155] was > 75%

Entry Cc1c(CN2CCC3(CCN(C(=O)n4ccc(C(=O)O)n4)CC3)C2)cccc1C(F)(F)F [Example 71] under MAGL (Mus musculus) had inhibition at 1 µM of > 75%

Fill in: MAGL (Mus musculus) inhibition at 1 µM for O=C(O)c1nn(C(=O)N2CC3CN(Cc4cc(Cl)cc(C(F)(F)F)c4)CC3C2)cc1Cl (centres unmarked) [Example 357] = > 75%

GET /values?item= C[C@H]1CN(Cc2cc(F)cc(Oc3ccccc3Cl)c2)CCN1C(=O)n1ccc(C(=O)O)n1 [Example 349] &system= MAGL (Mus musculus) returns inhibition at 1 µM: > 75%
